The measured values listed here are drawn from PubChem BioAssay (NCI).

# System: SN12C renal
# method description: NCI tumour cell line growth inhibition, 48 h
value type: TGI (µM)
Reply numerically in µM, unit not repeated.

Consider the worked cases shown below.
compound	TGI [µM]
CC12CC(OC(=O)[C@]1(C)O)[C@@H]([C@]1(O)CC[C@H]3[C@@H]4C[C@H]5O[C@]56[C@@H](O)C=CC(=O)[C@]6(C)[C@H]4CC[C@@]31C)C2 (some centres undefined)	20.5
O=C(OCCBr)c1ccc(Cl)c([N+](=O)[O-])c1	33.2
Nc1cc(N)c2nc(-c3ccccc3)c(NCc3ccc(F)cc3)nc2c1	23.7
CCN1C(=O)N(CC)C2C1NN=c1s/c(=C\c3cc4ccccc4[nH]3)c(=O)n12 (centres undefined)	14.6
COc1cccc2c1C(=O)c1ccc3cc(CCl)cc(O)c3c1C2=O	0.334
CN(CCCN(C)CCc1ccc(Cl)c(Cl)c1)CCCN1CCCC1	11.8
O=C1/C(=C/c2ccccc2)CCC/C1=C\c1ccc(O)c(CN2CCCCC2)c1	9.53
CCN(CC)C(=S)N=Nc1c(O)[nH]c2ccccc12	14.2
Oc1ccc(/C=C/c2ccc3cccc(O)c3n2)cc1O	12.8
C=C1CCC2C3(C)COC(c4ccccc4Br)OC3CCC2(C)C1C/C=C1/C(=O)OCC1OC(C)=O (centres undefined)	3.28

*Q* Bench note: what TGI did CCOC(=O)C1(C/C=C\CBr)CCCCCCCCCCC1=O (centres undefined) show?
*A* 28.4

*Q* Entry Cc1[nH]c2ccccc2c1CCNCc1ccc(/C=C/C(=O)NO)cc1 please
*A* 0.317

*Q* Entry NC(=S)N/N=C1\c2ccccc2CCC1CCC1(O)CCc2ccccc2C1=O (centres undefined) please
*A* 39.8

*Q* Entry O=C(CCCSc1nc(-c2ccccc2)cc(-c2ccc(Cl)cc2)n1)NO please
*A* 7.72

*Q* Entry CCCCOCCOC1=CC(=O)c2c(O)ccc(O)c2C1=O please
*A* 3.03

*Q* Entry Nc1n[nH]c2ccc([C@@H]3Nc4ccc5[nH]ncc5c4[C@H]4C5C=CC(C5)[C@@H]34)cc12 (some centres undefined) please
*A* 28.2

*Q* Entry O=C(COc1cccc(/C=C2\COc3ccc(Cl)cc3C2=O)c1)c1ccc(Cl)cc1 please
*A* 28.5
